Catalogue of Content values
Test: Stability experiments under 25° C.±2° C. and 65% R.H±5% R.H
Conditions: month 3; 25° C./65% R.H
Report as a plain number; the unit % is understood.

* CC[C@@H]([C@H](C)OP(=O)(O)O)n1ncn(-c2ccc(N3CCN(c4ccc(OC[C@@H]5CO[C@@](Cn6cncn6)(c6ccc(F)cc6F)C5)cc4)CC3)cc2)c1=O.CNC[C@H](O)[C@@H](O)[C@H](O)[C@H](O)CO | 99.81

Here is the next item to consider.
Exercise: Could you share which Content value was measured for CC[C@@H]([C@H](C)OP(=O)([O-])[O-])n1ncn(-c2ccc(N3CCN(c4ccc(OC[C@@H]5CO[C@@](Cn6cncn6)(c6ccc(F)cc6F)C5)cc4)CC3)cc2)c1=O.C[N+](C)(C)CCO.C[N+](C)(C)CCO [Comparative Example 1, Posaconazole Phosphate Bicholinate] ?
Key: 99.86

---

Assay: Stability experiments under 40° C.±2° C. and 75% R.H±5% R.H (accelerated test)
Assay type: physicochemical
Conditions: month 6; 40° C./75% R.H
measured_metric: Description

- CC[C@@H]([C@H](C)OP(=O)(O)O)n1ncn(-c2ccc(N3CCN(c4ccc(OC[C@@H]5CO[C@@](Cn6cncn6)(c6ccc(F)cc6F)C5)cc4)CC3)cc2)c1=O [Example 1, Posaconazole Phosphate Monocholinate]: White
- CC[C@@H]([C@H](C)OP(=O)(O)O)n1ncn(-c2ccc(N3CCN(c4ccc(OC[C@@H]5CO[C@@](Cn6cncn6)(c6ccc(F)cc6F)C5)cc4)CC3)cc2)c1=O.N=C(N)NCCC[C@H](N)C(=O)O [Comparative Example 5, Posaconazole Phosphate Monoarginine Salt]: White

---

Test: Stability experiments under 25° C.±2° C. and 65% R.H±5% R.H
Conditions: month 0; 25° C./65% R.H
Catalogue of Content values
Report as a plain number; the unit % is understood.

Here's what some known entries look like.
- CCC(C(C)OP(=O)([O-])[O-])n1ncn(-c2ccc(N3CCN(c4ccc(OCC5COC(Cn6cncn6)(c6ccc(F)cc6F)C5)cc4)CC3)cc2)c1=O.C[N+](C)(C)CCO.C[N+](C)(C)CCO.O.O.O.O.O (centres unmarked): 99.87
- CC[C@@H]([C@H](C)OP(=O)(O)O)n1ncn(-c2ccc(N3CCN(c4ccc(OC[C@@H]5CO[C@@](Cn6cncn6)(c6ccc(F)cc6F)C5)cc4)CC3)cc2)c1=O.N=C(N)NCCC[C@H](N)C(=O)O [Comparative Example 5, Posaconazole Phosphate Monoarginine Salt]: 99.87

Exercise: Could you share which Content value was measured for CC[C@@H]([C@H](C)OP(=O)([O-])[O-])n1ncn(-c2ccc(N3CCN(c4ccc(OC[C@@H]5CO[C@@](Cn6cncn6)(c6ccc(F)cc6F)C5)cc4)CC3)cc2)c1=O.O.O.O.O.O.[Na+].[Na+] ?
Key: 99.87

Exercise: Could you share which Content value was measured for CC[C@@H]([C@H](C)OP(=O)([O-])[O-])n1ncn(-c2ccc(N3CCN(c4ccc(OC[C@@H]5CO[C@@](Cn6cncn6)(c6ccc(F)cc6F)C5)cc4)CC3)cc2)c1=O.C[N+](C)(C)CCO.C[N+](C)(C)CCO [Comparative Example 1, Posaconazole Phosphate Bicholinate] ?
Key: 99.87

Exercise: Could you share which Content value was measured for CC[C@@H]([C@H](C)OP(=O)(O)O)n1ncn(-c2ccc(N3CCN(c4ccc(OC[C@@H]5CO[C@@](Cn6cncn6)(c6ccc(F)cc6F)C5)cc4)CC3)cc2)c1=O [Example 3] ?
Key: 99.37

Attribution: patent US20210147455A1
